biological target: RBDSARS-CoV (SARS-CoV S protein residues 318-510, C-terminal His-tag) (SARS-CoV, UniProt P59594 318-510); test: ELISA
pIC50: −log10 of the molar value.
metric: pIC50

See these solved cases before continuing.
- 4P-5 (VHH) VHH: DVQLVESGGGLVQAGGSLRLSCAASGRTFGNYVLDWFRQAPGKEREFVASITQTGFGTYYADAVKGRFTISRDNAKNTMYLQMNSLKPEDTAVYYCAADFTVQNGGIRNPTYWGQGTQVTVSS: 6.00 to 7.00
- 4P-56 (VHH, class IV psNb) VHH: QVQLVESGGGLVQAGGSLRLSCAASGRTDSISDMGWFRQAPGKEREFVAVVGWSGGGTDYAHSVKGRFTISRDNAKNTVYLQMNSLKPEDTAVYYCAVGSLRVGSFSVEYWGQGTQVTVSS: 7.00 to 8.00
- 5p-13 (VHH) VHH: HVQLVESGGGLVQPGGSLRLSCVASGLTFSRYTMAWFRQAPGKDRIFVAAVSKPGGSTYYADSVKGRFTISRDNAKNTVYLQMNSLKPDDTAVYSCAADLTVLLTANPAHYNYWGHGTQVTVSS: > 8.00

Would you kindly look at the next entry?
Item 5p-89 (VHH) VHH: EVQLVESGGGLVQAGGSLRLSCEDSKRTGSRWPVGWFRQAPGKEREFVASISWTGSRTYYADSVKGRFTISRDNAENTVFLKMNSLKPEDTAVYYCAAAQTRVYGANWSSSNRDDYDAWGQGTQVTVSS : provide pIC50
7.00 to 8.00

Reference for the values: patent US20250002563A1
